These entries and their values trace back to patent US20070254831A1.

Molecular target: T1, soluble human FcRn (human, UniProt P55899 24-297; P61769 21-119, biotinylated (Sulfo-NHS-LC-Biotin) in the ELISA; amine-coupled to CM5 chip in SPR)
T1 construct: also called shFcRn; biotinylated shFcRn
T1 sequence (P55899 24-297 limits assumed, chain 1 of 2): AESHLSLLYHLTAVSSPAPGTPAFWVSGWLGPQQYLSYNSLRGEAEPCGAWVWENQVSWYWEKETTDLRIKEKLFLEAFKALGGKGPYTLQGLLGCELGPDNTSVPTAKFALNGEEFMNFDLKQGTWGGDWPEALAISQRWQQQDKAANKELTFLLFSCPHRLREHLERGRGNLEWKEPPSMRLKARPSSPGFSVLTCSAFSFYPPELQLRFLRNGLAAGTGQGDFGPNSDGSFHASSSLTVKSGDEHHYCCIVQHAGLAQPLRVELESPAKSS
T1 sequence (P61769 21-119 limits assumed, chain 2 of 2): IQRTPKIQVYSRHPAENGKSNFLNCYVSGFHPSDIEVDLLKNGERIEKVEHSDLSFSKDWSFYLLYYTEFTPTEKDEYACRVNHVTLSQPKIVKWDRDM
Assay: SPR, pH 7.4
pKd: −log10 of the molar value. Bridge positions count the residues as written; N and C are the ends. Ends that are not written are not given here.
parameter-measured: pKd

QRFCTGHFGGLYPCNGP-NH2 (disulfide 4-14 (inferred)) [SEQ ID NO:1] | 4.52
